Tested on: A549
Experiment: Cell cycle arrest in human A549 cells assessed as decrease in G1 cells at IC50 after 24 hrs followed by compound washout by propidium iodide staining-based FACS analysis
Type: functional
Set-up: scale not given: the % may be the effect or the level left
# if measured Activity < 20%: MET  # else: NOT MET

# example entries with known answers
## Task Problem: For the molecule COc1cc2c(cc1OC)CN(CC(=O)Nc1ccc3c(c1)CC(=O)N3)CC2 , is Activity under 20%?
## Result MET

## Task I wonder whether COc1cc2c(cc1OC)CN(CC(=O)Nc1ccc3c(c1)/C(=C\c1ccccn1)C(=O)N3)CC2 has Activity below 20%. Can you tell?
## Result MET

Next:
## Task Find out if reported Activity for COc1cc2c(cc1OC)CN(CC(=O)Nc1ccc3c(c1)/C(=C/c1cccs1)C(=O)N3)CC2 is less than 20%
## Result NOT MET

## Task Consider the molecule COc1cc2c(cc1OC)CN(CC(=O)Nc1ccc3c(c1)/C(=C\c1nccn1C)C(=O)N3)CC2 . Is its Activity strictly less than 20%?
## Result MET

## Task Bench note: check whether CCCCCCCCCCCCCCCCCCOP(=O)([O-])OC1CC[N+](C)(C)CC1 shows Activity below 20%
## Result MET

## Task Is Activity strictly under 20% for the entry COc1cc2c(cc1OC)CN(CC(=O)Nc1ccc3c(c1)/C(=C/c1cnc[nH]1)C(=O)N3)CC2 ?
## Result MET
